# reported % inhibition Apo pol 5'; entries follow
# system: P. falciparum apicoplast DNA polymerase (Pf-apPOL) (Plasmodium falciparum)
# Sequence (Q8ILY1 entry or part of it): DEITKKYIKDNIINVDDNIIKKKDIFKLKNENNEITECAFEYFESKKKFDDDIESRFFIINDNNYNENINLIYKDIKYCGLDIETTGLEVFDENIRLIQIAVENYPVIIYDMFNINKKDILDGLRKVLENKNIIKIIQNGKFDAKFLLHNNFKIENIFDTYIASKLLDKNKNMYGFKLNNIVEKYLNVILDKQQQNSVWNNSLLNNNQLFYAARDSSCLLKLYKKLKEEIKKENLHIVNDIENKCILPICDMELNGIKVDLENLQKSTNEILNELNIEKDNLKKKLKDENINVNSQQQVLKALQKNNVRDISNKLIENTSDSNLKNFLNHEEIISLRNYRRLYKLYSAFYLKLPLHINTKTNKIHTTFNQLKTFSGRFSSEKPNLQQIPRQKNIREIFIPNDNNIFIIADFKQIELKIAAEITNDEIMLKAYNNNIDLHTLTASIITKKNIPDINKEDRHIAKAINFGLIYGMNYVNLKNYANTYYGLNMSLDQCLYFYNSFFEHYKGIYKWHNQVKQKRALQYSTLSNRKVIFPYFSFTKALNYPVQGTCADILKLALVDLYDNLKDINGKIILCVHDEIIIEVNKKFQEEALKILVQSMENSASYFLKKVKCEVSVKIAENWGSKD
# assay: Fluorescence-based high-throughput DNA polymerase assay (molecular beacon), primary screen and dose-response
# Assay type: biochemical
# test-context: DRC-2; 5'; concentration 40

[[record]]
compound_structure = "Cc1cc(C)c(O)c(/N=C/c2cc([N+](=O)[O-])cc(Br)c2O)c1"
result = "41%"

[[record]]
compound_structure = "O=C1c2ccccc2C(=O)N1Oc1ccc([N+](=O)[O-])c([N+](=O)[O-])c1"
result = "40%"

[[record]]
compound_structure = "COc1cc(Cl)c(C)cc1NC(=O)Cn1ccc2c(=O)[nH]ccc21"
result = "40%"


The value of % inhibition Apo pol 5' measured for the compound COc1cccc(Oc2c(C(F)(F)F)oc3cc(OC(=O)N(C)C)ccc3c2=O)c1 turned out to be 40%
